DC50: recorded values
target: STAT6 (Homo sapiens, UniProt P42226); construct: endogenous in cells; host or cells: MOLM-16, KU-812, SKNO1, MB231, L1236; assay: Immunoblotting (Western blot) analysis of STAT6 degradation efficiency of degraders in treated cells; type: cell-based; conditions: MOLM-16 cells, class symbols, read-out: DC50 S6 MOLM-16
Sequence (P42226 whole entry): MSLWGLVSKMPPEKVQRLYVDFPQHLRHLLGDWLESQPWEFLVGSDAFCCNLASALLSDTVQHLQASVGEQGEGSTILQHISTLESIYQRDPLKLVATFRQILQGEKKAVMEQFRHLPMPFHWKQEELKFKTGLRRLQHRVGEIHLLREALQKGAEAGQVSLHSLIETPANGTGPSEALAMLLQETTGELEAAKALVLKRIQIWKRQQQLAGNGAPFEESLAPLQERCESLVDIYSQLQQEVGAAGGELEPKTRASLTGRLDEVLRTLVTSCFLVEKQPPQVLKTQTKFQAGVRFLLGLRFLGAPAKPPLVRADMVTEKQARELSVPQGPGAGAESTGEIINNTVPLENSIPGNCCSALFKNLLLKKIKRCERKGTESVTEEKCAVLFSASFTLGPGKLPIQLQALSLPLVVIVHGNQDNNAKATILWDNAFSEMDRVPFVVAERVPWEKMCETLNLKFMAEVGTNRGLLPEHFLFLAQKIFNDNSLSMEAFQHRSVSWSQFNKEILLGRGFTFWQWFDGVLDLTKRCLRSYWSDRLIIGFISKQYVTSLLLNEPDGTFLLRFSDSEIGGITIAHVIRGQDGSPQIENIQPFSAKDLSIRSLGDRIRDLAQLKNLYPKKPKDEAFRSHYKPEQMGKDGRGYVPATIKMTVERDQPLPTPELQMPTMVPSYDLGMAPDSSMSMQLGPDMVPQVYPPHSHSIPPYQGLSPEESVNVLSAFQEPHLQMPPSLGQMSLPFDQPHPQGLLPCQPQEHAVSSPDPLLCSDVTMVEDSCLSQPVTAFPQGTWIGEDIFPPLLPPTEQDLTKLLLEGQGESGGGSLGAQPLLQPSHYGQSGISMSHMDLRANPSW

Cc1ncsc1-c1ccc([C@H](C)NC(=O)[C@@H]2C[C@@H](O)CN2C(=O)[C@@H](NC(=O)CCCNC(=O)CO[C@H]2C[C@@H](C(=O)N3CCO[C@H](c4ccccc4)C3)N(C(=O)[C@@H](NC(=O)c3cc4cc(C(F)(F)P(=O)(O)O)ccc4s3)C(C)(C)C)C2)C(C)(C)C)cc1 [Compound 427]
> 10 µM

// lookup DC50 for CC(C)(C)[C@H](NC(=O)c1cc2cc(C(F)(F)P(=O)(O)O)ccc2s1)C(=O)N1C[C@@H](OCC(=O)NCCC#Cc2cccc3c2C(=O)N(C2CCC(=O)NC2=O)C3=O)C[C@H]1C(=O)N1CCO[C@H](c2ccccc2)C1 (some centres unmarked) [Compound 481]
> 10 µM
